targetEntity: T1, Homo sapiens CGRP-alpha (Calcitonin Gene Related Peptide alpha) (Homo sapiens, C-terminal -NH2 as printed in the sequence (the text says "the N-terminal phenylalanine is amidated"))
T1 construct: Synthetic 37-residue peptide from American Peptides / Bachem; Coated directly on the plate in the recombinant-antibody ELISA; also called human CGRPα; CGRPα
T1 peptide: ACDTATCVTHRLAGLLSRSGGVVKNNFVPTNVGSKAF
protocol: ELISA: CGRPα coated on plate, antibody dilution series, anti-human IgG Fc-peroxidase detection

binder	binding result
Antibody Ab9 (antibody, human IgG1, kappa, N297A, V domains shown, Chimeric (rabbit variable regions, human gamma-1 and kappa constant regions), full length) VH: QSLEESGGRLVTPGTPLTLTCTVSGIGLSSYYMQWVRQSPGRGLEWIGVIGSDGKTYYATWAKGRFTISKTSSTTVDLRMASLTTEDTATYFCTRGDIWGPGTLVTVSS VL: QVLTQTPSPVSAAVGSTVTINCQASQNVYNNNYLAWYQQKPGQPPKQLIYSTSTLASGVSSRFRGSGSGTQFTLTISDVQCDDAATYYCLGSYDCSRGDCFVFGGGTEVVVKR	binds
Antibody Ab12 (antibody, human IgG1, kappa, N297A, V domains shown, Humanized, full length, human gamma-1 and kappa constant regions) VH: EVQLVESGGGLVQPGGSLRLSCAVSGIDVTNYYMQWVRQAPGKGLEWVGVIGVNGKRYYASWAKGRFTISRDNSKTTVYLQMNSLRAEDTAVYFCARGDIWGQGTLVTVSS VL: QVLTQSPSSLSASVGDRVTINCRASQSVYYNNYLAWYQQKPGKVPKQLIYSTSTLASGVPSRFSGSGSGTDFTLTISSLQPEDVATYYCLGSYDCSNGDCFVFGGGTKVEIKR	binds
Antibody Ab1 (antibody, human IgG1, kappa, N297A, V domains shown, Chimeric (rabbit variable regions, human gamma-1 and kappa constant regions), full length) VH: QSLEESGGRLVTPGTPLTLTCTVSGLDLSSYYMQWVRQAPGKGLEWIGVIGINDNTYYASWAKGRFTISRASSTTVDLKMTSLTTEDTATYFCARGDIWGPGTLVTVSS VL: QVLTQTASPVSAAVGSTVTINCQASQSVYDNNYLAWYQQKPGQPPKQLIYSTSTLASGVSSRFKGSGSGTQFTLTISDLECADAATYYCLGSYDCSSGDCFVFGGGTEVVVKR	binds

Data origin: patent US20120294797A1
